Listing of recorded IC50 by entry.
Target: Sgk2 (Homo sapiens, UniProt Q9HBY8)
Sequence (Q9HBY8 1-367): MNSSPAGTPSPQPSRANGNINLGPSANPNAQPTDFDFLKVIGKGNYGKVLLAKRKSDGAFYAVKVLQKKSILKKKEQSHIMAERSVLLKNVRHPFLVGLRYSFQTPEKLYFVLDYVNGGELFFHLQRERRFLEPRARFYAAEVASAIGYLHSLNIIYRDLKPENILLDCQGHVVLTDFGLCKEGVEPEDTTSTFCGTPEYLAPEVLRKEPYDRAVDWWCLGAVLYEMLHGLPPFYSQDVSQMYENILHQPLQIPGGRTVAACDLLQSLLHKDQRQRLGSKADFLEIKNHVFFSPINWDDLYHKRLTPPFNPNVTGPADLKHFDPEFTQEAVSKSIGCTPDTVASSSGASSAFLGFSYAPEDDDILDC
Assay: Enzyme based assay for SGK2 (biotinylated Akt Substrates-2 peptide, Eu3+ Cryptate/XL665 detection)
Type: biochemical
Details: 1 mM ATP; read-out: Sgk2 (1 mM ATP)
Mention the unit after the number when you answer.

# input Quick check: IC50 of COc1ccc(F)c(S(=O)(=O)Nc2ccc(-c3cc4[nH]ncc4c(SCC4CNCCO4)n3)cc2)c1 (stereo not shown) ?
# output 4.1 nM

More entries:
# input Quick check: IC50 of "COc1ccc(F)c(S(=O)(=O)Nc2ccc(-c3cc4c5c(n[nH]c5c3)NC(=O)CO4)cc2)c1" ?
# output 222 nM

# input Quick check: IC50 of "COc1ccc(F)c(S(=O)(=O)Nc2ccc(-c3cc4[nH]ncc4c(OC)n3)cc2)c1" ?
# output 32.7 nM

# input Quick check: IC50 of "COc1ccc(F)c(S(=O)(=O)Nc2ccc(-c3cc4c5c(n[nH]c5c3)NC(=O)C(C)(C)O4)cc2)c1" ?
# output 323 nM

----------
Biological target: UniProt O00141
Sequence (O00141 1-431): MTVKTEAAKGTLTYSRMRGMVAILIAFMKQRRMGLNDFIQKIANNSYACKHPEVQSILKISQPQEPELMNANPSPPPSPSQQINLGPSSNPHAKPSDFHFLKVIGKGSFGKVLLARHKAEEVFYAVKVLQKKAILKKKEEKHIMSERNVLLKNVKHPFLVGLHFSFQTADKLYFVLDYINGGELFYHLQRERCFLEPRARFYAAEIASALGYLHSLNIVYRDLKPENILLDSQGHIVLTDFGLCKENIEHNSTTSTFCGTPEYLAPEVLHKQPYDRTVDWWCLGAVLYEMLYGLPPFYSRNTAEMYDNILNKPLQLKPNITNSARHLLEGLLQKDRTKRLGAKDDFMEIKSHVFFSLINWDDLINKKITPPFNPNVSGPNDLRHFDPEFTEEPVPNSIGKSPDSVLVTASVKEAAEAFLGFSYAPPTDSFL
Assay: Enzyme based assay for SGK1 (biotinylated Akt Substrates-2 peptide, Eu3+ Cryptate/XL665 detection)
Assay type: biochemical
Conditions: 50 μM ATP; read-out: Sgk1 (50 μM ATP)
measurementLabel: IC50 (µM)
Dear colleague, please return just the value in µM, with no unit written.

See these solved cases before continuing.
# input Quick check: IC50 of COc1ccc(F)c(S(=O)(=O)Nc2ccc(-c3ccc4c(N)n[nH]c4n3)cc2)c1 [drawing 140] ?
# output 0.0029

# input Quick check: IC50 of "COc1ccc(F)c(S(=O)(=O)Nc2ccc(-c3cc4c5c(n[nH]c5c3)NC(=O)C(C)(C)O4)cc2)c1" ?
# output 0.0776

# input Quick check: IC50 of "COCCOc1cc(-c2ccc(NS(=O)(=O)c3cc(OC)ccc3F)cc2)nc2[nH]nc(N)c12" ?
# output 0.0287

Then this compound:
# input Quick check: IC50 of COc1ccc(F)c(S(=O)(=O)Nc2ccc(-c3cc(OC4CCOC4)c4c(N)n[nH]c4n3)cc2)c1 (stereo not shown) ?
# output 0.0247

All values here come from patent US11236083B2.
